// data source = PubChem BioAssay

assay: basal RPMI8226 viability, no added stimulus, profiling panel, cell-based, calcein-AM fluorescence, 48 h, PK04 Diversity Set (AID 1166); details: RPMI8226 myeloma viability, higher = more signal;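 note: cells grown under basal conditions without added stimulus; test concentration not given here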
assay-metric: z-score

Endpoint output: z-score of "[N-]=[N+]=Nc1ccccc1[C@H]1OC(c2ccc(OCCCO)cc2)=N[C@@]1(CCS(=O)(=O)c1ccccc1)C(N)=O" . Value?
0.0418

Endpoint output: z-score of "COCCOC(=O)N1C(=O)[C@@]2(c3ccccc31)[C@H](C(=O)N1CCc3cc(OC)c(OC)cc3C1)[C@H]1C(=O)O[C@H](c3ccccc3)[C@H](c3ccccc3)N1[C@@H]2c1ccc(OCCO)cc1" . Value?
0.494

Endpoint output: z-score of N#Cc1ccc(NN2C(C(O)C(c3ccccc3)c3ccccc3)C=CC3C(=O)N(c4ccccc4)C(=O)C32)cc1 (centres undefined) . Value?
0.103

Endpoint output: z-score of "C=CCNC(=O)[C@H]1[C@@H]2C(=O)O[C@@H](c3ccccc3)[C@@H](c3ccccc3)N2[C@@H](c2ccccc2OCCO)[C@]12C(=O)Nc1ccc(C#CCC(C(=O)OC)C(=O)OC)cc12" . Value?
-4.63

Endpoint output: z-score of "C[N+](C)(C)CCCC[C@@H]1NC(=O)[C@H]2C[C@@H](C(=O)NCCCCCCNC(=O)CS)[C@@H](c3cccc(OCCO)c3)N2C1=O" . Value?
-0.682

Endpoint output: z-score of C=C(C)[C@@H]1CC=C(C(O)C2C=CC3C(=O)N(c4ccccc4)C(=O)C3N2Nc2ccccc2)CC1 (some centres undefined) . Value?
-1.05

Endpoint output: z-score of Cc1ccccc1C(O)C1C=CC2C(=O)N(c3ccccc3)C(=O)C2N1Nc1ccc(C(C)C)cc1 (centres undefined) . Value?
-0.727

Endpoint output: z-score of "COC(=O)[C@@]1(Cc2ccc(OC)cc2)[C@H]2c3cc(C(=O)N(C)C)n(CCc4ccccn4)c3C[C@H]2CN1C(=O)c1ccccc1" . Value?
-2.59

Endpoint output: z-score of "NCCCCCCNC(=O)[C@@H]1C[C@@H]2C(=O)NCC(=O)N2[C@@H]1c1ccc(O)cc1" . Value?
0.0172

Endpoint output: z-score of "C=CCNC(=O)[C@@H]1[C@H]2C(=O)O[C@H](c3ccccc3)[C@H](c3ccccc3)N2[C@H](c2ccc(O)cc2)[C@@]12C(=O)N(C(=O)OCCOC)c1ccc(C#CCNC(N)=O)cc12" . Value?
1.09

Endpoint output: z-score of "CN(C)CCCC[C@@H]1NC(=O)[C@@H]2C[C@H](C(=O)NCCCCCCN)[C@H](c3cccc(OCCO)c3)N2C1=O" . Value?
0.294

Endpoint output: z-score of "NC(=O)NCC#Cc1ccc2c(c1)[C@]1(C(=O)N2)[C@H](C(=O)Nc2nc3ccccc3s2)[C@H]2C(=O)O[C@H](c3ccccc3)[C@H](c3ccccc3)N2[C@@H]1c1ccccc1OCCO" . Value?
-1.12

Endpoint output: z-score of "CN(C)CCCC[C@@H]1NC(=O)[C@H]2C[C@@H](C(=O)NCCCCCCN)[C@@H](c3ccc(O)cc3)N2C1=O" . Value?
0.226

Endpoint output: z-score of C=CCC(OC(C)=O)[C@@H]1[C@@H](N(Cc2ccc(-c3ccccc3)cc2)C(=O)Cc2ccc(OC)cc2)c2cc(OCCCO)ccc2N1C(=O)Cc1ccc2ccccc2c1 (some centres undefined) . Value?
-0.252

Endpoint output: z-score of "CC[C@@H]1C=C(C(=O)O)[C@H](c2ccc(Br)cc2)N1S(=O)(=O)c1ccc(C)cc1" . Value?
-1.13

Endpoint output: z-score of CN1C(=O)C2C=CC(C(O)C#Cc3ccccc3)N(N3CCCCC3)C2C1=O (centres undefined) . Value?
0.609

Endpoint output: z-score of "COc1ccc(CCNC(=O)[C@@]2(C)c3ccccc3C(=O)N(C(C)C)[C@H]2c2ccc(CO)cc2)cc1" . Value?
-0.974

Endpoint output: z-score of CCN(CC)c1ccc(N2CC=CC34O[C@@H]5C=CCCOC(=O)C5[C@H]3C(=O)N(CCCCCCO)[C@@H]4C2=O)cc1 (some centres undefined) . Value?
0.401

Endpoint output: z-score of "COCCOC(=O)N1C(=O)[C@@]2(c3cc(C#CCNC(N)=O)ccc31)[C@H](C(=O)N1CCN(c3ncccn3)CC1)[C@H]1C(=O)O[C@H](c3ccccc3)[C@H](c3ccccc3)N1[C@@H]2c1ccc(OCCO)cc1" . Value?
0.287
